We begin with a simple list: items and their reported log10 of OD450 (ref. 630 nm).
- TGT: DN-III-NS antigen (produced by Fapon Biotech InC.) (dengue virus)
- PROTOCOL_NOTES: capture ELISA, antibody sample 3-fold dilution
READOUT_NAME: log10 of OD450 (ref. 630 nm) (log10 of the value in OD)

1) Mutation 3 (antibody, V domains shown) VH: EVQLQQSGTELVRPGALVKLSCKASGFNIKLYYVHWVKQRPRQGLEWIGWIDPKNGKTLYDPKCQDKASITSDTSTNTAYLQLRSLTSEDTAVYYCVTAYVRFVYWGQGTLVTVSA VL: QIVLTQSPAIMSAFPGERVTMTCSASSSVVYMYWHQQKPGSSPRLLIYCTSNVASGLPVRFSGSGSGTSYSLTISRDEAMDAATYYCQQRSSTPRTFGGGTKLEIKR = -0.06
2) anti-dengue virus NS1 3D5 monoclonal antibody (recombinant, expressed in CHO cells) (antibody, mouse IgG1, kappa, V domains shown) VH: EVQLQQSGTELVRPGALVKLSCKASGFNIKDYYVHWVKQRPRQGLEWIGWIDPNNGKTIYDPKFQDKASITSDTSTNTAYLQLRSLTSEDTAVYYCVTAYVRFVYWGQGTLVTVSA VL: QIVLTQSPAIMSAFPGERVTMTCSASTSVKYMYWHQQKPGSSPRLLIYETSNIASGVPVRFSGSGSGTSYSLTISRDEAMDAATYYCQQWSSYPRTFGGGTKLEIKR = 0.36
3) Mutation 4 (antibody, V domains shown) VH: EVQLQQSGTELVRPGALVKLSCKASGFNIKRYYVHWVKQRPRQGLEWIGWIDPRNGKTLYDPKVQDKASITSDTSTNTAYLQLRSLTSEDTAVYYCVTAYVRFVYWGQGTLVTVSA VL: QIVLTQSPAIMSAFPGERVTMTCSASSSVIYMYWHQQKPGSSPRLLIYWTSNVASGYPVRFSGSGSGTSYSLTISRDEAMDAATYYCQQVSSTPRTFGGGTKLEIKR = -0.99
4) Mutation 2 (antibody, V domains shown) VH: EVQLQQSGTELVRPGALVKLSCKASGFNIKDYYVHWVKQRPRQGLEWIGWIDPNNGKTLYDPKYQDKASITSDTSTNTAYLQLRSLTSEDTAVYYCVTAYVRFVYWGQGTLVTVSA VL: QIVLTQSPAIMSAFPGERVTMTCSASSSVRYMYWHQQKPGSSPRLLIYDTSNVASGVPVRFSGSGSGTSYSLTISRDEAMDAATYYCQQYSSTPRTFGGGTKLEIKR = 0.35
5) Mutation 1 (antibody, V domains shown) VH: EVQLQQSGTELVRPGALVKLSCKASGFNIKDYYVHWVKQRPRQGLEWIGWIDPENGKTLYDPKFQDKASITSDTSTNTAYLQLRSLTSEDTAVYYCVTAYVRFVYWGQGTLVTVSA VL: QIVLTQSPAIMSAFPGERVTMTCSASSSVRYMYWHQQKPGSSPRLLIYDTSNVASGVPVRFSGSGSGTSYSLTISRDEAMDAATYYCQQWSSTPRTFGGGTKLEIKR = 0.38
